# TARGET: 5-hydroxytryptamine receptor 1A (Homo sapiens, UniProt P08908)
# Sequence (P08908 whole entry): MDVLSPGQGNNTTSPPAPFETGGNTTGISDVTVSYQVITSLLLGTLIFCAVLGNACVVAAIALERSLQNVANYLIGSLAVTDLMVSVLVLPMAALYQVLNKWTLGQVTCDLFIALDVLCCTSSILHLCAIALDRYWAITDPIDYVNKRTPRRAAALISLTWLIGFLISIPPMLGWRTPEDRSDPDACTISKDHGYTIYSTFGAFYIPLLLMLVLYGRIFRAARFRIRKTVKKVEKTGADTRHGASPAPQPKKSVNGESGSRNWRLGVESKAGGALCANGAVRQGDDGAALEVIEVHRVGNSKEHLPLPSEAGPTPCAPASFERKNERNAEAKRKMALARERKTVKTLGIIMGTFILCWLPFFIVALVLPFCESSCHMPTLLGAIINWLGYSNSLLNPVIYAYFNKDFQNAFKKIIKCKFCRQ

{"MOLECULE": "CCCCCCC/C(O)=C/C(=O)/C=C/c1ccc(O)c(OC)c1", "Ki [µM]": 6.54}
{"MOLECULE": "CCCCCCCCC[C@H](O)CC(=O)CCc1ccc(O)c(OC)c1", "Ki [µM]": 3.74}
{"MOLECULE": "CCCCCCCC(O)CCc1ccc(O)c(OC)c1 (stereo not drawn)", "Ki [µM]": 9.53}
